Entries below carry reported IC50 on human SUMO-1_18–97 (SUMO) (Homo sapiens).
Sequence (P63165 18-97): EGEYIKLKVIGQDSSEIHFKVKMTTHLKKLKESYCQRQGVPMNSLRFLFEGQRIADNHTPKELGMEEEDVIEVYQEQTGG
Number only, in µM; omit the unit.

>  <smiles_structure>
CC[C@H](C)[C@H](NC(=O)[C@@H](NC(=O)[C@H](CCC(=O)O)NC(=O)[C@@H](NC(=O)[C@H](CCC(=O)O)N(C)C(=O)[C@H](CC(N)=O)NC(=O)[C@H](CC(=O)O)NC(C)=O)[C@@H](C)CC)C(C)C)C(=O)N[C@H](C(=O)N[C@H](C(=O)N[C@@H](Cc1c[nH]c2ccccc12)C(=O)N[C@@H](CCC(=O)O)C(=O)N[C@@H](CCCCN)C(=O)N[C@@H](CCCCN)C(N)=O)C(C)C)[C@@H](C)CC

>  <measured_parameter>
IC50

>  <value_measured>
12.4

$$$$

Proceed to the following item.
State its IC50 on human SUMO-1_18–97 (SUMO) (Homo sapiens): CC[C@H](C)[C@H](NC(=O)[C@@H](NC(=O)[C@H](CCC(=O)O)N(C)C(=O)[C@@H](NC(=O)[C@H](CCC(=O)O)NC(=O)[C@H](CC(N)=O)NC(=O)[C@H](CC(=O)O)NC(C)=O)[C@@H](C)CC)C(C)C)C(=O)N[C@H](C(=O)N[C@H](C(=O)N[C@@H](Cc1c[nH]c2ccccc12)C(=O)N[C@@H](CCC(=O)O)C(=O)N[C@@H](CCCCN)C(=O)N[C@@H](CCCCN)C(N)=O)C(C)C)[C@@H](C)CC 31.4

----------
- assay_system: human SUMO-1_18–97 (SUMO) (Homo sapiens)
- experiment_notes: Relaxation-based NMR binding kinetics (15N ZZ-exchange for tighter binders, CPMG relaxation dispersion for weaker binders)
- measurement_context: pH 7.4
kon: recorded values
Record the value in M⁻¹ s⁻¹, omitting the unit from your answer.

>  <compound>
CC[C@H](C)[C@H](NC(=O)[C@H](CCC(=O)O)NC(=O)[C@H](CC(N)=O)NC(=O)[C@H](CC(=O)O)NC(C)=O)C(=O)N[C@@H](CCC(=O)O)C(=O)N[C@H](C(=O)N[C@H](C(=O)N[C@H](C(=O)N[C@H](C(=O)N[C@@H](Cc1c[nH]c2ccccc12)C(=O)N[C@@H](CCC(=O)O)C(=O)N(C)[C@@H](CCCCN)C(=O)N[C@@H](CCCCN)C(N)=O)C(C)C)[C@@H](C)CC)[C@@H](C)CC)C(C)C [Me-Lys2716]

>  <assay_system>
human SUMO-1_18–97 (SUMO) (Homo sapiens)

>  <unit_spec>
M⁻¹ s⁻¹

>  <value_measured>
1.09e+06

$$$$

From here, focus on the item given below.
Requested read-out: kon. Entry: CC[C@H](C)[C@H](NC(=O)[C@H](CCC(=O)O)NC(=O)[C@H](CC(N)=O)NC(=O)[C@H](CC(=O)O)NC(C)=O)C(=O)N[C@@H](CCC(=O)O)C(=O)N(C)[C@H](C(=O)N[C@H](C(=O)N[C@H](C(=O)N[C@H](C(=O)N[C@@H](Cc1c[nH]c2ccccc12)C(=O)N[C@@H](CCC(=O)O)C(=O)N[C@@H](CCCCN)C(=O)N[C@@H](CCCCN)C(N)=O)C(C)C)[C@@H](C)CC)[C@@H](C)CC)C(C)C [Me-Val2710] 536000

----------
Quick reference: kon of the listed items.
- assay_system: human SUMO-1_18–97 (SUMO) (Homo sapiens)
- experiment_notes: Relaxation-based NMR binding kinetics (15N ZZ-exchange for tighter binders, CPMG relaxation dispersion for weaker binders)
- measurement_context: pH 7.4
Reply numerically in M⁻¹ s⁻¹, unit not repeated.

>  <smiles_structure>
CC[C@H](C)[C@H](NC(=O)[C@H](CCC(=O)O)NC(=O)[C@H](CC(N)=O)NC(=O)[C@H](CC(=O)O)NC(C)=O)C(=O)N[C@@H](CCC(=O)O)C(=O)N[C@H](C(=O)N[C@H](C(=O)N[C@H](C(=O)N[C@H](C(=O)N[C@@H](Cc1c[nH]c2ccccc12)C(=O)N[C@@H](CCC(=O)O)C(=O)N[C@@H](CCCCN)C(=O)N(C)[C@@H](CCCCN)C(N)=O)C(C)C)[C@@H](C)CC)[C@@H](C)CC)C(C)C

>  <kon / M⁻¹ s⁻¹>
657000

$$$$
>  <smiles_structure>
CC[C@H](C)[C@H](NC(=O)[C@H](CCC(=O)O)NC(=O)[C@H](CC(N)=O)NC(=O)[C@H](CC(=O)O)NC(C)=O)C(=O)N[C@@H](CCC(=O)O)C(=O)N[C@H](C(=O)N[C@H](C(=O)N(C)[C@H](C(=O)N[C@H](C(=O)N[C@@H](Cc1c[nH]c2ccccc12)C(=O)N[C@@H](CCC(=O)O)C(=O)N[C@@H](CCCCN)C(=O)N[C@@H](CCCCN)C(N)=O)C(C)C)[C@@H](C)CC)[C@@H](C)CC)C(C)C

>  <kon / M⁻¹ s⁻¹>
410000

$$$$

Shifting focus to the compound that follows.
I would be grateful if you could share the reported kon for CC[C@H](C)[C@H](NC(=O)[C@@H](NC(=O)[C@H](CCC(=O)O)NC(=O)[C@H]([C@@H](C)CC)N(C)C(=O)[C@H](CCC(=O)O)NC(=O)[C@H](CC(N)=O)NC(=O)[C@H](CC(=O)O)NC(C)=O)C(C)C)C(=O)N[C@H](C(=O)N[C@H](C(=O)N[C@@H](Cc1c[nH]c2ccccc12)C(=O)N[C@@H](CCC(=O)O)C(=O)N[C@@H](CCCCN)C(=O)N[C@@H](CCCCN)C(N)=O)C(C)C)[C@@H](C)CC . 327000

Taken from paper PMC11220606.
